Where do the numbers come from? From PubChem BioAssay (NCATS).

Target: Cytochrome P450 3A4 (Homo sapiens) (UniProt P08684)
Sequence (P08684 whole entry, looked up): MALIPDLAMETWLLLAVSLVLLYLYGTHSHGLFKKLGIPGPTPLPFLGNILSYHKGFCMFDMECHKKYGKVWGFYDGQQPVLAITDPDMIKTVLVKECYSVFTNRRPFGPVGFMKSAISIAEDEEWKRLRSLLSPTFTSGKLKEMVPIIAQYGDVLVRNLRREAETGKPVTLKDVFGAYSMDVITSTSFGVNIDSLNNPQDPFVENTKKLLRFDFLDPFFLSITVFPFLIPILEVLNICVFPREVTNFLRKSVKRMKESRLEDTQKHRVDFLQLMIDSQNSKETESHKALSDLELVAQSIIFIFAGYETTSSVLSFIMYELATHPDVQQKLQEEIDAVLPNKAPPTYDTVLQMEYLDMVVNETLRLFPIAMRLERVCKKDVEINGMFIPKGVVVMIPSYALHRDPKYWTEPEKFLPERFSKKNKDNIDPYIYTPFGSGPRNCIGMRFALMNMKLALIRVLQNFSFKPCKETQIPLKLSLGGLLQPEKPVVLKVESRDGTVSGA
Test: qHTS Assay for Inhibitors and Substrates of Cytochrome P450 3A4 (AID 884); also: nearly all actives have a fitted effect of over 50% in size
Conditions: recombinant CYP3A4, Luciferin-PPXE luminescence; series mostly up to 57.1 µM
Records with an inconclusive call do not appear. Calls of active or inactive are those of the source. Calls follow the shape of the dose curve; as a rule, active = well fitted inhibition curve with a large enough effect; inconclusive = small, poorly fitted or top-dose-only effect; inactive = no such curve, though single readings can be large or run the other way.
Possible outcomes: active, inactive

{"compound": "c1cc(NC2CC2)nc(-c2ccoc2)n1", "tested target": "Cytochrome P450 3A4 (Homo sapiens) (UniProt P08684)", "label class": "active"}
{"compound": "O=C(c1cccc(F)c1)N1CCC[C@@]2(CCN(Cc3ccncc3)C2)C1", "tested target": "Cytochrome P450 3A4 (Homo sapiens) (UniProt P08684)", "label class": "active"}
{"compound": "COc1ccc(Oc2ncc3ncc(=O)n(CCc4ccccc4)c3n2)cc1", "tested target": "Cytochrome P450 3A4 (Homo sapiens) (UniProt P08684)", "label class": "active"}
{"compound": "CS(=O)(=O)Nc1cccc(-c2ccc3ncnc(NCc4cccs4)c3c2)c1", "tested target": "Cytochrome P450 3A4 (Homo sapiens) (UniProt P08684)", "label class": "active"}
{"compound": "CC(=O)NCCNc1ncnc2ccc(-c3ccc4c(c3)OCO4)cc12", "tested target": "Cytochrome P450 3A4 (Homo sapiens) (UniProt P08684)", "label class": "active"}
{"compound": "COc1ccccc1-c1ccc2ncnc(NCCN3CCOCC3)c2c1", "tested target": "Cytochrome P450 3A4 (Homo sapiens) (UniProt P08684)", "label class": "active"}
{"compound": "COc1ccccc1-c1nc(N(C)Cc2ccco2)c2ccccc2n1", "tested target": "Cytochrome P450 3A4 (Homo sapiens) (UniProt P08684)", "label class": "active"}
{"compound": "O=c1cc(-c2ccc(O)c(O)c2)oc2cc(OC3OC(CO)C(O)C(O)C3O)cc(O)c12 (centres undefined)", "tested target": "Cytochrome P450 3A4 (Homo sapiens) (UniProt P08684)", "label class": "inactive"}
{"compound": "COc1ccccc1CNc1cc(-c2cccc(NS(C)(=O)=O)c2)ncn1", "tested target": "Cytochrome P450 3A4 (Homo sapiens) (UniProt P08684)", "label class": "active"}
